Test system: whole blood
Assay protocol: Blood oxygen dissociation (Hemox Analyzer) of whole blood pre-incubated with effector
Type: cell-based
Applied conditions: observation, whole blood incubated with effector
Measured parameter: change of the P50 of treated Red Blood Cells vs. control

{"Molecule": "O=P(O)(O)O[C@H]1[C@H](OP(=O)(O)O)[C@@H](OP(=O)(O)O)[C@H](OP(=O)(O)O)[C@@H](OP(=O)(O)O)[C@H]1OP(=O)(O)O [IHP]", "Reading": "No change"}
{"Molecule": "NC1CCCCC1 [CHA, Cyclohexylamine]", "Reading": "No change"}
{"Molecule": "O=C([O-])[C@@H](COP(=O)([O-])[O-])OP(=O)([O-])[O-].[Na+].[Na+].[Na+].[Na+].[Na+] [PNa-DPG]", "Reading": "No change"}
